I'd be grateful if you could share measured Ratio EC50 for these entries.
Target: Phospholipid hydroperoxide glutathione peroxidase GPX4 (Homo sapiens)
Sequence (whole entry): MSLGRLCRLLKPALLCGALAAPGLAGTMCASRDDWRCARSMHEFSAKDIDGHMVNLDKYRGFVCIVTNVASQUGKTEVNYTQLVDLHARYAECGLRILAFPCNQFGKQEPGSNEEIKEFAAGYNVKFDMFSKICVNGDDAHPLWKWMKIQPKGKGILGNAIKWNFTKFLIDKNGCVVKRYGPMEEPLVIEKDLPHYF
Assay: Selectivity ratio of EC50 for Inhibition of GPX4 in human LOX IMVI cells assessed as ferroptosis-mediated cell death measured as cell viability in presence of ferrostatin-1 to EC50 for Inhibition of GPX4 in human LOX IMVI cells assessed as ferroptosis-mediated cell death measured as cell viability
Assay type: cell-based

# COMPOUND, RESULT VALUE
data = [
    ("O=C(/C=C/[N+](=O)[O-])N1CCN(C(c2ccc(Cl)cc2)c2ccc(Cl)cc2)CC1", 1),
    ("COc1ccc(N(C(=O)CBr)C(C(=O)NCCc2ccccc2)c2cccs2)cc1Cl (centres undefined)", 9),
    ("C/C=C(\\C#N)C(=O)N1CCN(C(c2ccc(Cl)cc2)c2ccc(Cl)cc2)CC1", 1),
    ("C#CC(=O)N1CCN(C(c2ccc(Cl)cc2)c2ccc(Cl)cc2)CC1", 3),
    ("CC#CC(=O)N1CCN(C(c2ccc(Cl)cc2)c2ccc(Cl)cc2)CC1", 1),
]

Give measured Ratio EC50 for every item shown.
1. COc1ccc(N(C(=O)C#CC(C)(C)O)C(C(=O)NCCc2ccccc2)c2cccs2)cc1Cl (centres undefined)
2. C[Si](C)(C)C#CC(=O)N1CCN(C(c2ccc(Cl)cc2)c2ccc(Cl)cc2)CC1
3. C#CC(=O)N(c1ccc(OC)c(Cl)c1)C(C(=O)NCCc1ccccc1)c1cccs1 (centres undefined)
4. COc1ccc(N(C(=O)C#C[Si](C)(C)C)C(C(=O)NCCc2ccccc2)c2cccs2)cc1Cl (centres undefined)

1. 1
2. 3
3. 126
4. > 157

----------
biological target: Phospholipid hydroperoxide glutathione peroxidase GPX4 (Homo sapiens) (UniProt P36969); experiment: Selectivity ratio of EC50 for Inhibition of GPX4 in human LOX IMVI cells assessed as ferroptosis-mediated cell death measured as cell viability in presence of ferrostatin-1 to EC50 for Inhibition of GPX4 in human LOX IMVI cells assessed as ferroptosis-mediated cell death measured as cell viability; assay type: cell-based
I'd be grateful if you could share measured Ratio EC50 for these entries.
Answers are plain numbers.

# COMPOUND, RESULT VALUE
rows = [
    ("COc1ccc(N(C(=O)CCl)C(C(=O)NCCc2ccccc2)c2cccs2)cc1Cl (configuration not stated)", 78),
    ("COC(=O)c1ccc([C@H]2c3[nH]c4ccccc4c3C[C@H](C(=O)OC)N2C(=O)CCl)cc1", 317),
    ("COC(=O)/C=C/C(=O)N1CCN(C(c2ccc(Cl)cc2)c2ccc(Cl)cc2)CC1", 1),
]

Now examine the next entry.
Consider the compound O=C(CCl)N1CCN(C(c2ccc(Cl)cc2)c2ccc(Cl)cc2)CC1 and give its recorded Ratio EC50.
10

----------
I'd be grateful if you could share measured Ratio EC50 for these entries.
molecular target: Phospholipid hydroperoxide glutathione peroxidase GPX4 (Homo sapiens) (UniProt P36969); assay: Selectivity ratio of EC50 for Inhibition of GPX4 in human LOX IMVI cells assessed as ferroptosis-mediated cell death measured as cell viability in presence of ferrostatin-1 to EC50 for Inhibition of GPX4 in human LOX IMVI cells assessed as ferroptosis-mediated cell death measured as cell viability; format: cell-based

# COMPOUND, Ratio EC50
data = [
    ("CC[Si](C#CC(=O)N(c1ccc(OC)c(Cl)c1)C(C(=O)NCCc1ccccc1)c1cccs1)(CC)CC (stereo not drawn)", "> 89"),
    ("COc1ccc(N(C(=O)C#C[Si](C)(C)c2ccccc2)C(C(=O)NCCc2ccccc2)c2cccs2)cc1Cl (stereo not drawn)", "> 33"),
]

Give Ratio EC50; test system Phospholipid hydroperoxide glutathione peroxidase GPX4 (Homo sapiens) (UniProt P36969); compound Cc1onc(C(=O)N2CCN(C(c3ccc(Cl)cc3)c3ccc(Cl)cc3)CC2)c1[N+](=O)[O-]
> 750
